system: H3N2 (influenza virus); experiment: microbe, parasite or virus in culture; conditions: Influenza A virus, H3N2, MDCK, H3N2 in host cell MDCK, CPE
Measured IC50 accompanies every entry in the list below.
measure: IC50 (µM)

# compound, recorded measurement
records = [
    ("COc1cccc(-c2csc(N/N=C/c3ccccc3C(=O)O)n2)c1 [Compound 52]", 147),
    ("Cc1sc(N(C)/N=C/c2ccccc2C(=O)O)nc1-c1ccccc1Cl [Compound 13]", 114),
    ("Cc1ccc(-c2csc(N/N=C/c3ccccc3C(=O)O)n2)cc1 [Compound 54]", 326),
    ("Cc1sc(N/N=C/c2ccccc2C(=O)O)nc1-c1ccccc1 [Compound 17]", 1.5),
    ("CC(C)N(/N=C/c1ccccc1C(=O)O)c1nc(-c2ccccc2Cl)cs1 [Compound 4]", 112),
]
